Test system: mitochondrial flavoprotein oxidation (mitochondrial KATP channels)
Procedure Details: Flavoprotein fluorescence measurement of mitochondrial redox state in intact ventricular myocytes
Type: cell-based, rabbit
Conditions Used: Oryctolagus cuniculus, Ventricular myocyte; FIG. 5; 5-6 cells per point; read-out: EC50 to induce mitochondrial oxidation
Text: In the following Examples, ventricular myocytes were isolated from adult rabbit hearts by conventional enzymatic dissociation, according to Liu, Y., et al., “Synergistic modulation of ATP-sensitive K^+ currents by protein kinase C and adenosine: implications for ischemic preconditioning”, Circ. Res., 1996, 78: 443-454, then washed several times with calcium-free solution. […]. […]
Readout: EC50 (µM)
Your answer should be a plain number; it is taken to be in µM.

# CC1=NS(=O)(=O)c2cc(Cl)ccc2N1 [diazoxide] with mitochondrial flavoprotein oxidation (mitochondrial KATP channels): EC50 is 27
